tested on: SK-MEL-28 melanoma; assay: NCI tumour cell line growth inhibition, 48 h
PROPERTY_MEASURED: TGI

>>> data_value("O=[N+]([O-])c1ccc(/C=C/c2nc3ccc(Cl)cc3[nH]2)cc1")
"> 100 µM"
>>> data_value("O=C(O)CCCCn1ccc(=O)[nH]c1=O")
"> 100 µM"
>>> data_value("CC[C@@]1(O)C[C@H](OC2CC(N(C)C)C(O)C(C)O2)c2c(cc3c(c2O)C(=O)c2c(O)ccc(O)c2C3=O)[C@H]1C(=O)OC (stereo not given in full)")
"0.462 µM"
>>> data_value("Cc1ccc([P+](Cc2ccccc2)(c2ccccc2)c2ccccc2)cc1")
"25.8 µM"
>>> data_value("O[C@@H]1C[C@H](Cl)c2c(Cl)sc(Cl)c21")
"> 100 µM"
>>> data_value("ClCCCSSCCCCl")
"> 100 µM"
>>> data_value("CC(=O)OCC12CN(C#N)C3C4COC(CC41)C1(C(=O)N(C)c4ccccc41)C32 (stereo not given)")
"62.9 µM"
>>> data_value("CN1CC=C(c2cc(NC(=O)Nc3ccc(Oc4ccnc(NC(=O)C5CC5)c4)c(F)c3)cc(C(F)(F)F)c2)CC1")
"3.07 µM"
>>> data_value("O=[N+]([O-])c1cc(-c2nc(=S)[nH][nH]2)ccc1O")
"> 100 µM"
>>> data_value("N#CC1C[C@@H]2CC3(CCC2CN1C(=O)c1ccccc1)OCCO3 (stereo not given in full)")
"> 100 µM"
>>> data_value("CCOC(=O)/C=C(/C(=O)OCC)n1cc(C)c(=O)n(Cc2cnnn2COCCOC(C)=O)c1=O")
"47.5 µM"
>>> data_value("O=C(NC(=Nc1ccccc1)SCSC(=Nc1ccccc1)NC(=O)c1ccco1)c1ccco1")
"> 100 µM"
>>> data_value("O=c1c2c3c(sc2nc2n1N=CN(c1ccccc1)C2)CCCC3")
"> 100 µM"
>>> data_value("CN1CCN(C(=O)[C@@]2(C)CC[C@]3(C)CC[C@]4(C)C(=CC[C@@H]5[C@@]6(C)CCC(=O)NC(C)(C)[C@@H]6CC[C@]54C)[C@@H]3C2)CC1")
"2.97 µM"
>>> data_value("O=C(CCC(=O)Nc1ccc(Cl)c(Cl)c1)CC(=O)c1ccc2ccccc2c1")
"> 100 µM"
>>> data_value("O=C(c1ccccc1)N1CCN(C(=S)NC2CCCCC2)C1=S")
"31.2 µM"
>>> data_value("CC(C)(C)N/N=C(\\C(=O)Nc1cccc(Cl)c1)C1C(=O)Nc2ccccc2S1=O (stereo not given)")
"> 100 µM"
>>> data_value("NC1N=Nc2ccccc21 (stereo not given)")
"> 100 µM"
>>> data_value("CN(C)C(=O)Oc1c(Br)cc(Br)cc1C(=O)OCc1ccccc1")
"97.3 µM"
>>> data_value("Cc1c(Cc2ccccc2)n(C(C)OCCN(OC(=O)Oc2ccccc2)C(=O)Oc2ccccc2)c(=O)[nH]c1=O (stereo not given)")
"42 µM"
